Target: rTgGlo1 (recombinant Toxoplasma gondii glyoxalase 1) (Toxoplasma gondii, UniProt A0A7J6JV59)
Construct: full-length ORF (1008 nt, printed 336 residues) in pRSETb, His-tagged, E. coli BL21(DE3)pLysS; S-hexylglutathione-agarose then Ni-NTA; two glyoxalase domains 20-167 and 181-325
Sequence (A0A7J6JV59 1-336): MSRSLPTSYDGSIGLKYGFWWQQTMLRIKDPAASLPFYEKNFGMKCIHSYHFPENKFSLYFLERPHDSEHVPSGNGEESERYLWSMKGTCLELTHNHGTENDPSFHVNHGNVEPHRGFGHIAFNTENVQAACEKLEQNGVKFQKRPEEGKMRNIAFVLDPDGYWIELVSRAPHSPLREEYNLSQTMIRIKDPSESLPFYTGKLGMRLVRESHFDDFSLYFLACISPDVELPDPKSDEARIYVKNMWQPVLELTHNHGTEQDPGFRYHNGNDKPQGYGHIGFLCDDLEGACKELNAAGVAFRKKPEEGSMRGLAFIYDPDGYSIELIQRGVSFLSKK
Assay: spectrophotometric at […] nm, Lineweaver-Burk
ENDPOINT_NAME: Ki

[[record]]
chem_smiles = "COc1cc(/C=C/C(=O)CC(=O)/C=C/c2ccc(O)c(OC)c2)ccc1O"
recorded_measurement = "12.9 µM"

